# targetOrSystem: human glucagon receptor (human, UniProt P47871 26-477)
# Sequence (P47871 26-477): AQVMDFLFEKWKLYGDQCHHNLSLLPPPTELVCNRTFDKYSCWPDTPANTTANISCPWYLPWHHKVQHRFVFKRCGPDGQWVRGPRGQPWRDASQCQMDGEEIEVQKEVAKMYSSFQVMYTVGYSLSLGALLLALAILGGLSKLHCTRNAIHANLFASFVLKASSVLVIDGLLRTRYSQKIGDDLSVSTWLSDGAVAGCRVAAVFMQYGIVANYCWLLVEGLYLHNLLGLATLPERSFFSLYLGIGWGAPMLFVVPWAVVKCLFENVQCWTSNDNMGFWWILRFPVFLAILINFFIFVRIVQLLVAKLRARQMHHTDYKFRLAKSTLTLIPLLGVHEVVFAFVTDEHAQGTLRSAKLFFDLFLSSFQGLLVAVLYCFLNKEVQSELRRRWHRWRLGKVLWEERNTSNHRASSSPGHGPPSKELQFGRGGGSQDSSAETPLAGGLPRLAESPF
# procedureSummary: cell-based or functional assay
Where no end group is shown, it is not given here. [ ]: non-standard residue; d: D form. Bip(2'-Et-4'-OMe) = CCc1cc(OC)ccc1-c1ccc(C[C@H](N)C(=O)O)cc1; αMePhe(2,6-F2) = C[C@](N)(Cc1c(F)cccc1F)C(=O)O; αMePhe(2-F) = C[C@](N)(Cc1ccccc1F)C(=O)O; αMeBip(OMe) = alpha-methylated Bip(OMe); hhPhe = N[C@@H](CCCc1ccccc1)C(=O)O; αMeD = C[C@](N)(CC(=O)O)C(=O)O; αMeP = C[C@@]1(C(=O)O)CCCN1; αMeAPPA = not defined here; αMeS = C[C@](N)(CO)C(=O)O; Aib = CC(C)(N)C(=O)O
valueType: cAMP production (pmol/ml/µg prt) with saturated glucagon peptide, at 1 µM
Answer format: number, then unit.

# count of solved cases: 2
binder	result
VH[Aib]EGT[αMePhe(2-F)]TSD[αMeBip(OMe)][hhPhe]-NH2 [Seq. ID. No. 23]	2 pmol/ml/µg prt
VVHSEGTFTSD[αMeBip(OMe)][hhPhe] (not fully specified (C-terminus); printed as VVHSEGTFTSD-(αMe-Bip(OMe))-(APPA)) [Seq. ID. No. 209]	0 pmol/ml/µg prt

Query VH[Aib]EGT[αMePhe(2-F)]T[αMeS]D[αMeBip(OMe)][hhPhe]-NH2 [Seq. ID. No. 47] yields cAMP production (pmol/ml/µg prt) with saturated glucagon peptide, at 1 µM of 3 pmol/ml/µg prt

Query VVH[αMeP]QGT[αMePhe(2-F)]TSD[αMeBip(OMe)][hhPhe]-NH2 [Seq. ID. No. 216] yields cAMP production (pmol/ml/µg prt) with saturated glucagon peptide, at 1 µM of 0 pmol/ml/µg prt

Query VH[Aib]EGTFTSD[αMeBip(OMe)][hhPhe] (not fully specified (C-terminus); printed as VH-Aib-EGTFTSD-(αMe-Bip(OMe))-(APPA)) [Seq. ID. No. 13] yields cAMP production (pmol/ml/µg prt) with saturated glucagon peptide, at 1 µM of 14 pmol/ml/µg prt

Query VH[Aib]QGT[αMePhe(2,6-F2)]TS[αMeD][αMeBip(OMe)][αMeAPPA] (not fully specified (C-terminus); reading uncertain) [Seq. ID. No. 199] yields cAMP production (pmol/ml/µg prt) with saturated glucagon peptide, at 1 µM of 3 pmol/ml/µg prt

Query VHSEGTFTSD[Bip(2'-Et-4'-OMe)][αMeAPPA] (not fully specified (C-terminus); printed as VHSEGTFTSD-Bip(OMe)-(αMe-APPA); reading uncertain) [Seq. ID. No. 87] yields cAMP production (pmol/ml/µg prt) with saturated glucagon peptide, at 1 µM of 0 pmol/ml/µg prt

Query VH[αMeP]EGT[αMePhe(2,6-F2)]TS[αMeD][αMeBip(OMe)][hhPhe] (not fully specified (C-terminus)) [Seq. ID. No. 80] yields cAMP production (pmol/ml/µg prt) with saturated glucagon peptide, at 1 µM of 0 pmol/ml/µg prt

Query VVH[Aib]EGTFTSD[αMeBip(OMe)][hhPhe] (not fully specified (C-terminus); printed as VVH-Aib-EGTFTSD-(αMe-Bip(OMe))-(APPA)) [Seq. ID. No. 211] yields cAMP production (pmol/ml/µg prt) with saturated glucagon peptide, at 1 µM of 0 pmol/ml/µg prt

Data origin: patent US20120264685A1
